Biological target: rAtACBP6 (Arabidopsis thaliana)
Construct: made in house; host or cells: Escherichia coli
Sequence (P57752 1-92): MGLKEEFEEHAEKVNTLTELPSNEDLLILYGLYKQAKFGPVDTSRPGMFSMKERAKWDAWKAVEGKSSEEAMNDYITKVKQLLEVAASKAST
Assay: ITC of acyl-CoA esters binding to rAtACBP6
Conditions: ITC, 30°C, 10 mM sodium phosphate buffer pH 7.0; mean of three±S.D.
Entries and their ΔH
Give your result in kcal/mol as a bare value.

[
  {
    "CHEMICAL_STRUCTURE": "CC/C=C\\C/C=C\\C/C=C\\CCCCCCCC(=O)SCCNC(=O)CCNC(=O)[C@H](O)C(C)(C)COP(=O)(O)OP(=O)(O)OC[C@H]1O[C@@H](n2cnc3c(N)ncnc32)[C@H](O)[C@@H]1OP(=O)(O)O",
    "ASSAYED_SYSTEM": "rAtACBP6 (Arabidopsis thaliana)",
    "MEASURED_METRIC": "ΔH",
    "OBSERVED": -12.1
  }
]

Now for another entry.
Input CCCCCCCC/C=C\CCCCCCCC(=O)SCCNC(=O)CCNC(=O)[C@H](O)C(C)(C)COP(=O)(O)OP(=O)(O)OC[C@H]1O[C@@H](n2cnc3c(N)ncnc32)[C@H](O)[C@@H]1OP(=O)(O)O , output reported ΔH.
-6.7

* * *

Target: rAtACBP4 (Arabidopsis thaliana, UniProt Q9MA55)
Sequence (Q9MA55 whole entry): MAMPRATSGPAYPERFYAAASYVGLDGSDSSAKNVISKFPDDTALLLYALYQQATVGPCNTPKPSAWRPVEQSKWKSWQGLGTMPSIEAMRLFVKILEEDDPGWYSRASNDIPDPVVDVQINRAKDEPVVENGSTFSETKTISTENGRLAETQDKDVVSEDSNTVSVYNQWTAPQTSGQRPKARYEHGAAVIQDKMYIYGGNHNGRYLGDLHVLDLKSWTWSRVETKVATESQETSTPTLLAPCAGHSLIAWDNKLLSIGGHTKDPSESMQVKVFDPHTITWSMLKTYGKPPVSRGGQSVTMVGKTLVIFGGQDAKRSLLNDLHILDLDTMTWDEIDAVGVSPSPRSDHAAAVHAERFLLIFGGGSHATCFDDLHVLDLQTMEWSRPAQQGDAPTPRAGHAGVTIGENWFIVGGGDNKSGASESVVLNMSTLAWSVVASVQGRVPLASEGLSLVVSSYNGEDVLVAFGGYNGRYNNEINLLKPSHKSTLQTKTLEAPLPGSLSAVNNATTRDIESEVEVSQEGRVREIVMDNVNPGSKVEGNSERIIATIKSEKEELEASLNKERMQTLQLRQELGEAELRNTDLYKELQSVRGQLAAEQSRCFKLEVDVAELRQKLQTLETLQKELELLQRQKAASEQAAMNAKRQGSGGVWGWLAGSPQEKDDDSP
Assay: ITC of acyl-CoA esters binding to rAtACBP4
Conditions: ITC, 30°C, 10 mM sodium phosphate buffer pH 7.0; mean of three±S.D.
Description: The protein expression plasmids containing full-length AtACBP4 and AtACBP5 cDNA were previously constructed in the vector pRSETB (Invitrogen) as pAT184 and pAT185, respectively. […] Protein concentrations were determined by the standard Bradford assay (Bio-Rad). Calorimetric titration was performed with a MicroCal iTC200 system (GE Healthcare) at 30°C. […] Raw data were integrated and analysed using the Origin v.7.0 software accompanying the calorimeter.
Exam item: assign TRUE to entries whose ΔH is below -70 kcal/mol and FALSE to entries at or above -70 kcal/mol. Note that a value of exactly -70 kcal/mol receives FALSE.

As a guide, the following entries are already answered.
[
  {
    "CHEMICAL_STRUCTURE": "CCCCCCCCCCCCCCCCCC(=O)SCCNC(=O)CCNC(=O)[C@H](O)C(C)(C)COP(=O)(O)OP(=O)(O)OC[C@H]1O[C@@H](n2cnc3c(N)ncnc32)[C@H](O)[C@@H]1OP(=O)(O)O",
    "DISCRETE_LABEL": "FALSE"
  },
  {
    "CHEMICAL_STRUCTURE": "CC/C=C\\C/C=C\\C/C=C\\CCCCCCCC(=O)SCCNC(=O)CCNC(=O)[C@H](O)C(C)(C)COP(=O)(O)OP(=O)(O)OC[C@H]1O[C@@H](n2cnc3c(N)ncnc32)[C@H](O)[C@@H]1OP(=O)(O)O",
    "DISCRETE_LABEL": "TRUE"
  },
  {
    "CHEMICAL_STRUCTURE": "CCCCCCCCCCCCCC(=O)SCCNC(=O)CCNC(=O)[C@H](O)C(C)(C)COP(=O)(O)OP(=O)(O)OC[C@H]1O[C@@H](n2cnc3c(N)ncnc32)[C@H](O)[C@@H]1OP(=O)(O)O",
    "DISCRETE_LABEL": "FALSE"
  },
  {
    "CHEMICAL_STRUCTURE": "CCCCCCCC/C=C\\CCCCCCCC(=O)SCCNC(=O)CCNC(=O)[C@H](O)C(C)(C)COP(=O)(O)OP(=O)(O)OC[C@H]1O[C@@H](n2cnc3c(N)ncnc32)[C@H](O)[C@@H]1OP(=O)(O)O",
    "DISCRETE_LABEL": "FALSE"
  },
  {
    "CHEMICAL_STRUCTURE": "CCCCCCCCCCCCCCCC(=O)SCCNC(=O)CCNC(=O)[C@H](O)C(C)(C)COP(=O)(O)OP(=O)(O)OC[C@H]1O[C@@H](n2cnc3c(N)ncnc32)[C@H](O)[C@@H]1OP(=O)(O)O",
    "DISCRETE_LABEL": "TRUE"
  }
]

Read the next record carefully.
Hello, I'm reviewing records and need to know if ΔH of CCCCC/C=C\C/C=C\CCCCCCCC(=O)SCCNC(=O)CCNC(=O)[C@H](O)C(C)(C)COP(=O)(O)OP(=O)(O)OC[C@H]1O[C@@H](n2cnc3c(N)ncnc32)[C@H](O)[C@@H]1OP(=O)(O)O is below -70 kcal/mol. Could you check?
TRUE

* * *

Target: rAtACBP4 (Arabidopsis thaliana)
Experiment: ITC of acyl-CoA esters binding to rAtACBP4
Conditions: ITC, 30°C, 10 mM sodium phosphate buffer pH 7.0; mean of three±S.D.; read-out: Kd
Entries and their pKd
As a rule, pKd stands for the negative log10 of the concentration, concentration in M.

Consider the following illustrative entries.
[
  {
    "CHEMICAL_STRUCTURE": "CC/C=C\\C/C=C\\C/C=C\\CCCCCCCC(=O)SCCNC(=O)CCNC(=O)[C@H](O)C(C)(C)COP(=O)(O)OP(=O)(O)OC[C@H]1O[C@@H](n2cnc3c(N)ncnc32)[C@H](O)[C@@H]1OP(=O)(O)O",
    "pKd": 3.72
  },
  {
    "CHEMICAL_STRUCTURE": "CCCCCCCCCCCCCCCCCC(=O)SCCNC(=O)CCNC(=O)[C@H](O)C(C)(C)COP(=O)(O)OP(=O)(O)OC[C@H]1O[C@@H](n2cnc3c(N)ncnc32)[C@H](O)[C@@H]1OP(=O)(O)O",
    "pKd": 5.57
  }
]

Now for another entry.
Input CCCCCCCC/C=C\CCCCCCCC(=O)SCCNC(=O)CCNC(=O)[C@H](O)C(C)(C)COP(=O)(O)OP(=O)(O)OC[C@H]1O[C@@H](n2cnc3c(N)ncnc32)[C@H](O)[C@@H]1OP(=O)(O)O , output reported pKd.
4.02

* * *

Entries and their ΔH
Target: rAtACBP5 (Arabidopsis thaliana)
Experiment: ITC of acyl-CoA esters binding to rAtACBP5
Conditions: ITC, 30°C, 10 mM sodium phosphate buffer pH 7.0; mean of three±S.D.
Give your result in kcal/mol as a bare value.

[
  {
    "CHEMICAL_STRUCTURE": "CCCCCCCCCCCCCC(=O)SCCNC(=O)CCNC(=O)[C@H](O)C(C)(C)COP(=O)(O)OP(=O)(O)OC[C@H]1O[C@@H](n2cnc3c(N)ncnc32)[C@H](O)[C@@H]1OP(=O)(O)O",
    "OBSERVED": -3.7
  },
  {
    "CHEMICAL_STRUCTURE": "CCCCC/C=C\\C/C=C\\CCCCCCCC(=O)SCCNC(=O)CCNC(=O)[C@H](O)C(C)(C)COP(=O)(O)OP(=O)(O)OC[C@H]1O[C@@H](n2cnc3c(N)ncnc32)[C@H](O)[C@@H]1OP(=O)(O)O",
    "OBSERVED": -10.2
  }
]

Now for another entry.
Input CCCCCCCCCCCCCCCC(=O)SCCNC(=O)CCNC(=O)[C@H](O)C(C)(C)COP(=O)(O)OP(=O)(O)OC[C@H]1O[C@@H](n2cnc3c(N)ncnc32)[C@H](O)[C@@H]1OP(=O)(O)O , output reported ΔH.
-11.2

* * *

Target: rAtACBP5 (Arabidopsis thaliana, UniProt Q8RWD9)
Sequence (Q8RWD9 whole entry): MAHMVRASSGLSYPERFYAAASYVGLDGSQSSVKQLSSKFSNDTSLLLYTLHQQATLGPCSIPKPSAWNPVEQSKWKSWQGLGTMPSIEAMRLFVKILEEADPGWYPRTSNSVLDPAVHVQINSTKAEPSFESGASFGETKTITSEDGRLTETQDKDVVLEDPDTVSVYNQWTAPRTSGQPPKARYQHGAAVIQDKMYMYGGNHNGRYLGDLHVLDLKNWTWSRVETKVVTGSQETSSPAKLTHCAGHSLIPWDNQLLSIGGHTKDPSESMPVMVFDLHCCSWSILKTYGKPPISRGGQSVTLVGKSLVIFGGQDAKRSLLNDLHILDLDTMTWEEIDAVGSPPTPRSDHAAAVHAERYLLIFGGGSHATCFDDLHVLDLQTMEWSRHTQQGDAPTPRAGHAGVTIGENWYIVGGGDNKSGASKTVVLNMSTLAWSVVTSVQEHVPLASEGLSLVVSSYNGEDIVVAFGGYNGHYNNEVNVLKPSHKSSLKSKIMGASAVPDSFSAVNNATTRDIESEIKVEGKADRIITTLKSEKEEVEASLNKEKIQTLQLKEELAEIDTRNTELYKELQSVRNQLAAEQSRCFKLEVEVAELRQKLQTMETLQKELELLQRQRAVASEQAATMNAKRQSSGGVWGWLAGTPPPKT
Experiment: ITC of acyl-CoA esters binding to rAtACBP5
Details: ITC, 30°C, 10 mM sodium phosphate buffer pH 7.0
MEASURED_METRIC: ΔS

Input CC/C=C\C/C=C\C/C=C\CCCCCCCC(=O)SCCNC(=O)CCNC(=O)[C@H](O)C(C)(C)COP(=O)(O)OP(=O)(O)OC[C@H]1O[C@@H](n2cnc3c(N)ncnc32)[C@H](O)[C@@H]1OP(=O)(O)O , output reported ΔS.
-7.4 cal/(mol·K)

Input CCCCCCCCCCCCCCCC(=O)SCCNC(=O)CCNC(=O)[C@H](O)C(C)(C)COP(=O)(O)OP(=O)(O)OC[C@H]1O[C@@H](n2cnc3c(N)ncnc32)[C@H](O)[C@@H]1OP(=O)(O)O , output reported ΔS.
-16.7 cal/(mol·K)

Input CCCCC/C=C\C/C=C\CCCCCCCC(=O)SCCNC(=O)CCNC(=O)[C@H](O)C(C)(C)COP(=O)(O)OP(=O)(O)OC[C@H]1O[C@@H](n2cnc3c(N)ncnc32)[C@H](O)[C@@H]1OP(=O)(O)O , output reported ΔS.
-14.7 cal/(mol·K)

Input CCCCCCCC/C=C\CCCCCCCC(=O)SCCNC(=O)CCNC(=O)[C@H](O)C(C)(C)COP(=O)(O)OP(=O)(O)OC[C@H]1O[C@@H](n2cnc3c(N)ncnc32)[C@H](O)[C@@H]1OP(=O)(O)O , output reported ΔS.
-1.8 cal/(mol·K)

Input CCCCCCCCCCCCCC(=O)SCCNC(=O)CCNC(=O)[C@H](O)C(C)(C)COP(=O)(O)OP(=O)(O)OC[C@H]1O[C@@H](n2cnc3c(N)ncnc32)[C@H](O)[C@@H]1OP(=O)(O)O , output reported ΔS.
7.7 cal/(mol·K)

Input CCCCCCCCCCCCCCCCCC(=O)SCCNC(=O)CCNC(=O)[C@H](O)C(C)(C)COP(=O)(O)OP(=O)(O)OC[C@H]1O[C@@H](n2cnc3c(N)ncnc32)[C@H](O)[C@@H]1OP(=O)(O)O , output reported ΔS.
-37.2 cal/(mol·K)

Taken from paper PMC4274664.
